Dear all, I have gathered published IC50 values for Catechol O-methyltransferase (Homo sapiens, UniProt P21964); the list follows.
Please reply with the bare figure in nM and do not write the unit itself.

Completed entries (count: 5):
O=[N+]([O-])c1c(O)c(O)cc2ccccc12 ... 30
N#C/C(=C\c1cc(O)c(O)c([N+](=O)[O-])c1)C(=O)N1CCC1 ... 33
O=C(c1ccccc1)c1ccc2c([N+](=O)[O-])c(O)c(O)cc2c1 ... 80
O=C(c1ccccc1)c1cc2c([N+](=O)[O-])c(O)c(O)cc2oc1=O ... 30
N#C/C(=C(/O)c1cc(O)c(O)c([N+](=O)[O-])c1)c1cnccn1 ... 105

Query for Catechol O-methyltransferase (Homo sapiens, UniProt P21964): what IC50 does the record show for `CCCCCCC(=O)c1ccc2c([N+](=O)[O-])c(O)c(O)cc2c1` ? 80

Query for Catechol O-methyltransferase (Homo sapiens, UniProt P21964): what IC50 does the record show for `N#C/C(=C\c1cc(O)c(O)c([N+](=O)[O-])c1)c1cnccn1` ? 108

Query for Catechol O-methyltransferase (Homo sapiens, UniProt P21964): what IC50 does the record show for `N#C/C(=C\c1cc(O)c(O)c([N+](=O)[O-])c1)c1cnc(C(=O)O)cn1` ? 24
